# Test Summary: in vivo
Readout: TD50 (mg/kg)
I only need the number, in mg/kg, no unit after it.

For the compound Cc1ccc2c(c1)CCc1cc(CC(=O)O)n(C)c1C2=O , what TD50 is on record? 95

---

# Test Summary: Carrageenin test (anti-inflammatory activity)
# Format: in vivo
# Study Conditions: 45 mg/kg; * significantly active
Readout: Carrageenin % Inhibition
Please make sure the unit comes right after the number.

Carrageenin % Inhibition for CC(=O)OC(C)CCc1cc2c(n1C)C(=O)c1ccccc1CC2 (stereo not shown) [Example 6] ? 19%

Try this compound next: Cn1c(CC(=O)O)cc2c1C(=O)c1ccccc1CC2 [Example 2] 30%

Next compound up: CC(O)CCc1cc2c(n1C)C(=O)c1ccccc1CC2 (stereo not shown) [Example 5] 25%

Can you check CC(=O)CCc1cc2c(n1C)C(=O)c1ccccc1CC2 [Example 4] next? 20%
